# key: entry, value: EC50
Target: UniProtKB P31424
Assay: mGlu5 Ca2+ flux assay
Assay type: cell-based
Details: Table 2 compounds with X = O; read-out: mGlu5 EC50
Express your answer in nM, writing the number without its unit.

Example entries begin here.
COMPOUND | EC50 / nM
O=C1c2cc(COc3ccccc3)nn2CCN1c1ccc(F)cc1 [drawing 29 X = O, reference compound] | 44
O=C1c2cc(COc3cccc(F)c3)nn2CCN1c1ccc(F)cc1 [drawing 31 X = O, reference compound] | 192
O=C1c2cc(COc3ccccc3F)nn2CCN1c1ccc(F)cc1 [drawing 30 X = O, reference compound] | 147

Now turn to the next compound.
What the record says about O=C1c2cc(COc3ccc(F)cc3)nn2CCN1c1ccc(F)cc1 [drawing 32 X = O, reference compound] : EC50 is 106

----------
Molecular target: rat mGlu5 (Rattus norvegicus (Rat), UniProt P31424)
Sequence (P31424 21-1203): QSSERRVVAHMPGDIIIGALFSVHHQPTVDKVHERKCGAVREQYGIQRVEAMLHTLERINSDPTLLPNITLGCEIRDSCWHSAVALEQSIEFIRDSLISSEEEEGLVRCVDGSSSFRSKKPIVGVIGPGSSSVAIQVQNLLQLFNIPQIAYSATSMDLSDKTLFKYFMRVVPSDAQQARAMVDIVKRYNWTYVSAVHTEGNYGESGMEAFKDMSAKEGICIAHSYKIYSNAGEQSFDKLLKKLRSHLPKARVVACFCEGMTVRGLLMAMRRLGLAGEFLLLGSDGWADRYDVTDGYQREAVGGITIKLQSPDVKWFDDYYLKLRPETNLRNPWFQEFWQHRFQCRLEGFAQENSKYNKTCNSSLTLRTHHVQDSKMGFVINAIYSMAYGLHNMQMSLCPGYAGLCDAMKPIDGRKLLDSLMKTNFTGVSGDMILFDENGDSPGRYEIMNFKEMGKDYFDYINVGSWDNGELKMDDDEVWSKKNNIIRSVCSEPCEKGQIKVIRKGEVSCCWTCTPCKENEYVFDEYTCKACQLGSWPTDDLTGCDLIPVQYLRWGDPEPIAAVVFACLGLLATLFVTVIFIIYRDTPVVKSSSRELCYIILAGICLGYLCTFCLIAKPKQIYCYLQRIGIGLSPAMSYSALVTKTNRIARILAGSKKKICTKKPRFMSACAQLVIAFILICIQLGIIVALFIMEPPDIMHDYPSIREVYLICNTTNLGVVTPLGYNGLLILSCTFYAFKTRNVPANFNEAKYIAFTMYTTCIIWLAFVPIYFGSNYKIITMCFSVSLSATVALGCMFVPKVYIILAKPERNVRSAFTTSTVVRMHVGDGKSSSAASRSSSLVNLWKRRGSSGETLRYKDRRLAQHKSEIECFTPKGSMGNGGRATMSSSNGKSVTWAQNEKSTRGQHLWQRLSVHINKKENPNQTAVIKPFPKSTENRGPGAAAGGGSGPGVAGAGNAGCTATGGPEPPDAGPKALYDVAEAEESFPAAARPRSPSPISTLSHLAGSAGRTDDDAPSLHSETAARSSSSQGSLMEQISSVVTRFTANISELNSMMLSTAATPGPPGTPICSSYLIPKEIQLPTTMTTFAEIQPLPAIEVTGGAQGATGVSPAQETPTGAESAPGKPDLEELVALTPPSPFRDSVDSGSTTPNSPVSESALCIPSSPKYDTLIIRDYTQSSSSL
Assay: mGlu5 Ca2+ flux assay
Type: cell-based
Conditions: read-out: rat mGlu5 EC50 or IC50
Consider the following compounds and their measured EC50 readings.
Enter your answer as a number in µM; do not include the unit.

Check out these entries, answers already filled in.
SMILES DATA | READOUT UNIT | RECORDED RESULT
O=C1c2cc(CNc3ccccc3)nn2CCN1c1ccc(F)cc1 | µM | 2.04
O=C1c2cc(CNc3ccc(OC(F)F)c(F)c3)nn2CCN1c1ccc(F)cc1 | µM | 1.56
O=C1c2cc(CNc3ccc(F)cc3F)nn2CCN1c1ccc(F)cc1 | µM | 1.51
Cc1cccc(NCc2cc3n(n2)[C@@H](C)CN(c2ccc(F)cc2)C3=O)c1 | µM | 7.61

Reported EC50 of C[C@@H]1CN(c2ccc(F)cc2)C(=O)c2cc(CNc3ccccc3)nn21 : 4.81

----------
Listed below: pEC50 values for each entry.
Molecular target: rat mGlu5 (Rattus norvegicus (Rat), UniProt P31424)
Assay: mGlu5 Ca2+ flux assay
Type: cell-based
Conditions: read-out: rat mGlu5 EC50 or IC50
Experimental: The cells were grown overnight at 37° C. in the presence of 5% CO2. […] Dye was removed, 20 μL of assay buffer was added, and the plate was incubated for 5 minutes at room temperature. Ca^2+ flux was measured using the Functional Drug Screening System (FDSS7000, Hamamatsu, Japan). […] Calcium fluorescence measures were recorded as fold over basal fluorescence; raw data was then normalized to the maximal response to glutamate. […]
pEC50: −log10 of the molar value.

COMPOUND | RECORDED RESULT
COc1ccc(N(C)Cc2cc3n(n2)CCN(c2cccc(C#N)c2)C3=O)cc1 [Compound 116] | < 4.52
COc1ccc(N(C)Cc2cc3n(n2)CCN(c2ccccc2OC)C3=O)cc1 [Compound 119] | < 4.52

Item Cc1cnc(N2CCn3nc(CNc4ccc(OC(F)F)cc4F)cc3C2=O)s1 [Compound 137] was tested on rat mGlu5 (Rattus norvegicus (Rat), UniProt P31424); the reported pEC50 is < 4.52

Lab note: compound COc1ccccc1N(C)Cc1cc2n(n1)CCN(c1ccc(F)cc1)C2=O [Compound 85] tested on rat mGlu5 (Rattus norvegicus (Rat), UniProt P31424); recorded pEC50 was < 4.52

----------
Consider the following molecules and their measured Fold selectivity (mGlu3 vs. mGlu5) readings.
Target: rat mGlu5 (Rattus norvegicus (Rat))
Test: mGlu5 Ca2+ flux assay
Assay type: cell-based
Conditions: ratio of rat mGlu5 EC50 or IC50 to rat mGlu3 IC50

// Fold selectivity (mGlu3 vs. mGlu5) lookup, molecule = CN(Cc1cc2n(n1)CCN(c1ccc(F)cc1)C2=O)c1ccc(Cl)cc1 , result: 5.08

Field Fold selectivity (mGlu3 vs. mGlu5) (entry O=C1c2cc(CNc3ccc(OC(F)F)cc3F)nn2CCN1c1cccc(F)c1 ) reads >17

Record COc1ccc(N(C)Cc2cc3n(n2)CCN(c2ccccc2C#N)C3=O)cc1 , field Fold selectivity (mGlu3 vs. mGlu5): >7.9

Sample C[C@H]1CN(c2ccc(F)cc2)C(=O)c2cc(CNc3cccc(F)c3F)nn21 ; Fold selectivity (mGlu3 vs. mGlu5) observed: 2.59

Measured Fold selectivity (mGlu3 vs. mGlu5), COc1ccc(NCc2cc3n(n2)CCN(c2ccc(Cl)cc2)C3=O)cc1 : >22

The recorded Fold selectivity (mGlu3 vs. mGlu5) for COc1ccc(NCc2cc3n(n2)CCN(c2ccc(F)c(F)c2)C3=O)cc1 is >20

Input CN(Cc1cc2n(n1)CCN(c1ccc(F)cc1)C2=O)c1ccc(F)cc1 . Output Fold selectivity (mGlu3 vs. mGlu5): >64

The reported Fold selectivity (mGlu3 vs. mGlu5) of the molecule COc1ccc(N(C)Cc2cc3n(n2)CCN(c2ccc(C)cc2F)C3=O)cc1 was >24

So for Cc1cccc(NCc2cc3n(n2)[C@H](C)CN(c2ccc(F)cc2)C3=O)c1 , the logged Fold selectivity (mGlu3 vs. mGlu5) turned out to be >9.8
